molecular target: Heat shock factor protein (Homo sapiens) (UniProt Q00613+Q03933+Q9ULV5); assay: Activation of HSF in human HeLa cell clone 13B after 8 hrs by luciferase reporter gene assay; format: cell-based
quantity-measured: AC200 (µM)
Give your result in µM as a bare value.

**Query** Supply AC200 measured with Heat shock factor protein (Homo sapiens) (UniProt Q00613+Q03933+Q9ULV5) for O=C1C[C@@H](NC(=O)Oc2ccccc2)[C@H](Sc2ccc3ccccc3c2)C1 .
**Result** 26

**Query** Report AC200 under test system Heat shock factor protein (Homo sapiens) (UniProt Q00613+Q03933+Q9ULV5) for COC(=O)[C@H](CSC1CC(=O)/C(=C/C(C)C)C1C)NC(=O)OC(C)(C)C (some centres not stated) .
**Result** 18

**Query** Jot down AC200 (Heat shock factor protein (Homo sapiens) (UniProt Q00613+Q03933+Q9ULV5)) of CCOC(=O)NC1C=CC(=O)C1 (configuration not stated) .
**Result** 49

**Query** Provide the reported AC200 (system: Heat shock factor protein (Homo sapiens) (UniProt Q00613+Q03933+Q9ULV5)) for CC(C)/C=C1/C(=O)C=CC1C (configuration not stated)
**Result** 13

**Query** Specify the recorded AC200 for CC(C)/C=C1/C(=O)C=CC1NC(=O)OC(C)(C)C (configuration not stated) , system: Heat shock factor protein (Homo sapiens) (UniProt Q00613+Q03933+Q9ULV5).
**Result** 2.8

**Query** Would you please give the reported AC200 of O=C1C=CC(NC(=O)Oc2ccccc2)C1 (configuration not stated) with Heat shock factor protein (Homo sapiens) (UniProt Q00613+Q03933+Q9ULV5)?
**Result** 10

**Query** Return reported AC200 for target or system Heat shock factor protein (Homo sapiens) (UniProt Q00613+Q03933+Q9ULV5), item CC(C)(C)OC(=O)NC1C=CC(=O)/C1=C/c1ccccc1 (configuration not stated) .
**Result** 1.8

**Query** State the measured AC200 (Heat shock factor protein (Homo sapiens) (UniProt Q00613+Q03933+Q9ULV5)) of COC(=O)[C@H](CS[C@@H]1CC(=O)C[C@H]1NC(=O)Oc1ccccc1)NC(=O)OC(C)(C)C
**Result** 13

**Query** # return AC200 of CC1C=CC(=O)/C1=C/c1ccccc1 (configuration not stated) (system: Heat shock factor protein (Homo sapiens) (UniProt Q00613+Q03933+Q9ULV5))
**Result** 3

**Query** Enter AC200 (test system Heat shock factor protein (Homo sapiens) (UniProt Q00613+Q03933+Q9ULV5)) for CCCCC1C=CC(=O)/C1=C/CC(C)C (configuration not stated)
**Result** 13

**Query** Report value: AC200, system: Heat shock factor protein (Homo sapiens) (UniProt Q00613+Q03933+Q9ULV5), compound: CC(C)(C)OC(=O)NC1C=CC(=O)/C1=C/c1ccc(Cl)cc1 (configuration not stated)
**Result** 2
